biological target: NS3h_DV2 (Dengue virus type 2, UniProt P29990); construct: made in house; test: RNA-stimulated ATP hydrolysis, pH 7.5, Dengue; assay type: biochemical; conditions: 10 μM poly(U) RNA, read-out: ATPase w/RNA NS3h_DV2 IC50 (μM) ± SD
Sequence (P29990 1646-2093): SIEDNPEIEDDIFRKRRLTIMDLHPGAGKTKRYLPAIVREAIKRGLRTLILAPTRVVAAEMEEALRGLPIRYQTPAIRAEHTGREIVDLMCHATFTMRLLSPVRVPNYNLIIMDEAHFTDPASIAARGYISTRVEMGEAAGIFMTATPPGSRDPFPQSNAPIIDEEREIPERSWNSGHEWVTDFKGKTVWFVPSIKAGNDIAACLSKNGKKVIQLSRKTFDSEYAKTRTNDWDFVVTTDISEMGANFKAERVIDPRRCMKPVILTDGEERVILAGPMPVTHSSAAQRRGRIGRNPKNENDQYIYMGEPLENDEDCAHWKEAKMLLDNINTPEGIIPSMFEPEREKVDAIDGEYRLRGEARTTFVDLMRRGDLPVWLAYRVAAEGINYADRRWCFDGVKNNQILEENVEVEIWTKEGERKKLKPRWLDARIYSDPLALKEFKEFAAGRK
METRIC NAME: IC50 (µM)

INSERT INTO results (smiles_record, target_of_assay, metric_name, recorded_number) VALUES
  ('Cc1ccc2nc(-c3ccc4nc(-c5ccc(NC(=O)c6cccc(Cl)c6)cc5)sc4c3)sc2c1S(=O)(=O)O', 'NS3h_DV2 (Dengue virus type 2, UniProt P29990)', 'IC50', 4),
  ('Cc1ccc2nc(-c3ccc4nc(-c5ccc(NC(=O)c6ccc(C(F)(F)F)cc6)cc5)sc4c3)sc2c1S(=O)(=O)O', 'NS3h_DV2 (Dengue virus type 2, UniProt P29990)', 'IC50', 2),
  ('Cc1ccc2nc(-c3ccc4nc(-c5ccc(NC(=O)c6cc(C(F)(F)F)cc(C(F)(F)F)c6)cc5)sc4c3)sc2c1S(=O)(=O)O', 'NS3h_DV2 (Dengue virus type 2, UniProt P29990)', 'IC50', 11),
  ('Cc1ccc2nc(-c3ccc4nc(-c5ccc(N)cc5)sc4c3)sc2c1S(=O)(=O)O', 'NS3h_DV2 (Dengue virus type 2, UniProt P29990)', 'IC50', 32),
  ('Cc1ccc2nc(-c3ccc4nc(-c5ccc(NC(=O)c6ccc(Cl)c(Cl)c6)cc5)sc4c3)sc2c1S(=O)(=O)O', 'NS3h_DV2 (Dengue virus type 2, UniProt P29990)', 'IC50', 4),
  ('Cc1ccc2nc(-c3ccc4nc(-c5ccc(NC(=O)c6ccc(C(C)(C)C)cc6)cc5)sc4c3)sc2c1S(=O)(=O)O', 'NS3h_DV2 (Dengue virus type 2, UniProt P29990)', 'IC50', 8),
  ('Cc1ccc2nc(-c3ccc4nc(-c5ccc(NC(=O)c6ccc(F)cc6)cc5)sc4c3)sc2c1S(=O)(=O)O.N', 'NS3h_DV2 (Dengue virus type 2, UniProt P29990)', 'IC50', 6);

----------
Each record here notes measured Inh. (%) (Inhibition).
target: HCV NS3 helicase NS3h_1b(con1) (Hepatitis C virus genotype 1b); construct: truncated C-terminally His-tagged NS3 proteins lacking the N-terminal protease, called NS3h; His-tag (C); made in house; assay: MBHA screen of NCI mechanistic set library at 20 μM (percent inhibition, compound interference); type: biochemical; conditions: compounds at 20 μM, MBHA with DNA substrate; calculated from Equation 1
Sequence (Q9WMX2 1192-1657): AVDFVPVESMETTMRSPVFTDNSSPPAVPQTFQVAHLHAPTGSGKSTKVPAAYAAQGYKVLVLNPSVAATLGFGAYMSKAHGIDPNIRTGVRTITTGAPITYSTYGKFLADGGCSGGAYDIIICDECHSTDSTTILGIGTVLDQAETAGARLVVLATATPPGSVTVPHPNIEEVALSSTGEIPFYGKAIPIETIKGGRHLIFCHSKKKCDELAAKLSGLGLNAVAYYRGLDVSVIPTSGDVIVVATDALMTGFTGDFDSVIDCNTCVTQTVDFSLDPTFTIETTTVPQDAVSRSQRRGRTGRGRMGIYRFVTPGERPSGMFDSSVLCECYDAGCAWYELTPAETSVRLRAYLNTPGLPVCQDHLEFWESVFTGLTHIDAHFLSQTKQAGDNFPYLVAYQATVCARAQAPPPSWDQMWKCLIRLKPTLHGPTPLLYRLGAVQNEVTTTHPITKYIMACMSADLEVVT
Starred links: 1 amine or outer side, 2 acyl side, 3 side chain; linkers in the order of their positions; H or OH if unused. Positions of bridges follow the written chain, without caps; N, C: chain ends. Non-standard residues stand in square brackets, D forms with d. Residues, ends and D or L forms follow the SMILES beside them. Chains are numbered I, II in the order given. Actinocin(9to1) = Cc1c2oc3c(C)ccc(C(=O)[*:1])c3nc-2c(C(=O)[*:2])c(N)c1=O; NMeV = CN[C@H](C(=O)O)C(C)C; Sar = CNCC(=O)O
METRIC NAME: Inh. (%) (Inhibition)

INSERT INTO assay_data (molecule, target_of_assay, readout_unit, recorded_number) VALUES
  ('Cc1nc2c(o1)C(=O)c1ccccc1C2=Nc1ccccc1 [Compound 650573]', 'HCV NS3 helicase NS3h_1b(con1) (Hepatitis C virus genotype 1b)', '%', '−14.3'),
  ('CCOC(=O)C(C)NC(=O)N(C)C12CC3CC(CC(C3)C1)C2 (centres unmarked) [Compound 208913]', 'HCV NS3 helicase NS3h_1b(con1) (Hepatitis C virus genotype 1b)', '%', 0.9),
  ('CCC1CN2CCc3cc(OC)c(OC)cc3C2CC1CC1c2cc(OC)c(OC)cc2CCN1C(=O)C1CCCN1C(=O)OCc1ccccc1 (centres unmarked) [Compound 103248]', 'HCV NS3 helicase NS3h_1b(con1) (Hepatitis C virus genotype 1b)', '%', '−11.6'),
  ('O=S(=O)(c1cccc(N=C=S)c1)c1cccc(N=C=S)c1 [Compound 140911]', 'HCV NS3 helicase NS3h_1b(con1) (Hepatitis C virus genotype 1b)', '%', 3.1),
  ('Cc1c2oc3c(C)ccc(C(=O)N[C@@H]4C(=O)N[C@H](C(C)C)C(=O)N5CCC[C@H]5C(=O)N(C)CC(=O)N(C)[C@@H](C(C)C)C(=O)O[C@@H]4C)c3nc-2c(C(=O)N[C@@H]2C(=O)N[C@H](C(C)C)C(=O)N3CCC[C@H]3C(=O)N(C)CC(=O)N(C)[C@@H](C(C)C)C(=O)O[C@@H]2C)c(N)c1=O [Compound 3053] (I: T[dV]P[Sar][NMeV] / II: T[dV]P[Sar][NMeV]; ester I:1-I:C, II:1-II:C; linker I:N-II:N via Actinocin(9to1))', 'HCV NS3 helicase NS3h_1b(con1) (Hepatitis C virus genotype 1b)', '%', 67.5);

----------
Target: E. coli SSB-Cy5-dT15 complex (Escherichia coli)
Construct: purchased Promega
Sequence (P0AGE0 2-178, one chain of several): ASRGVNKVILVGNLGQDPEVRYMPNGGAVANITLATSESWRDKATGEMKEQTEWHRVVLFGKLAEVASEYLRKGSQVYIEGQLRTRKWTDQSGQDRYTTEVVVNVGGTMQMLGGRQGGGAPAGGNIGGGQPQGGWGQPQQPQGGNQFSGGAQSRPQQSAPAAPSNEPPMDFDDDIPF
Assay: Escherichia coli SSB Cy5-dT15 binding assay (fluorescence polarization)
Settings: disruption of Cy5-dT15-SSB complex; read-out: Cy5-dT15-SSB Binding IC50
Protocol: The Escherichia coli SSB assay was performed in a total volume of 20.2 μl in 384-well, flat-bottom, low volume, black microplates (Greiner Bio-One). […]
pIC50: −log10 of the molar value.
METRIC NAME: pIC50

INSERT INTO measurements (smiles_record, metric_name, recorded_number) VALUES
  ('Cc1ccc2nc(-c3ccc(N)cc3)sc2c1S(=O)(=O)O', 'pIC50', 4.89),
  ('Cc1ccc2nc(-c3ccc4nc(-c5ccc(NC(=O)c6ccc7nc(-c8ccc(N)cc8)sc7c6)cc5)sc4c3)sc2c1S(=O)(=O)O', 'pIC50', 5.52),
  ('Cc1ccc2nc(-c3ccc(NC(=O)c4ccc(NC(=O)c5ccccc5)cc4)cc3)sc2c1S(=O)(=O)O.N', 'pIC50', 4.24),
  ('Cc1ccc2nc(-c3ccc4nc(-c5ccc(N)cc5)sc4c3)sc2c1S(=O)(=O)O', 'pIC50', 5.70),
  ('Cc1ccc2nc(-c3ccc4nc(-c5ccc(NC(=O)c6ccc(C(F)(F)F)cc6)cc5)sc4c3)sc2c1S(=O)(=O)O', 'pIC50', 5.52),
  ('Cc1ccc2nc(-c3ccc4nc(-c5ccc(NC(=O)c6ccncc6)cc5)sc4c3)sc2c1S(=O)(=O)O', 'pIC50', 4.26),
  ('Cc1ccc2nc(-c3ccc4nc(-c5ccc(NC(=O)Nc6ccc(F)cc6)cc5)sc4c3)sc2c1S(=O)(=O)O.N', 'pIC50', 4.96),
  ('Cc1ccc2nc(-c3ccc4nc(-c5ccc(NC(=O)c6ccc(NC(=O)OCC7c8ccccc8-c8ccccc87)cc6)cc5)sc4c3)sc2c1S(=O)(=O)O', 'pIC50', 3.75),
  ('Cc1ccc(C(=O)Nc2ccc(-c3nc4ccc(-c5nc6ccc(C)c(S(=O)(=O)O)c6s5)cc4s3)cc2)cc1', 'pIC50', 5.30),
  ('Cc1ccc2nc(-c3ccc4nc(-c5ccc(NC(=O)c6ccc(N(C)C)cc6)cc5)sc4c3)sc2c1S(=O)(=O)O', 'pIC50', 5.40),
  ('Cc1ccc2nc(-c3ccc4nc(-c5ccc(NC(=O)c6ccc7nc(-c8ccc(NC(=O)OCC9c%10ccccc%10-c%10ccccc%109)cc8)sc7c6)cc5)sc4c3)sc2c1S(=O)(=O)O.N', 'pIC50', 5.30),
  ('Cc1ccc2nc(-c3ccc(NC(=O)c4ccc(NC(=S)Nc5ccccc5)cc4)cc3)sc2c1S(=O)(=O)O.N', 'pIC50', 4.64),
  ('Cc1ccc2nc(-c3ccc4nc(-c5ccc(NC(=O)c6ccc7ccccc7c6)cc5)sc4c3)sc2c1S(=O)(=O)O', 'pIC50', 4.55),
  ('Cc1ccc2nc(-c3ccc4nc(-c5ccc(NC(=O)c6ccc(F)cc6)cc5)sc4c3)sc2c1S(=O)(=O)O.N', 'pIC50', 4.85),
  ('Cc1cc2sc(-c3ccc4nc(-c5ccc(N)cc5)sc4c3)nc2cc1S(=O)(=O)O', 'pIC50', 6.00),
  ('Cc1ccc2nc(-c3ccc4nc(-c5ccc(NC(=S)Nc6ccccc6)cc5)sc4c3)sc2c1S(=O)(=O)O.N', 'pIC50', 5.15),
  ('Cc1ccc2nc(-c3ccc4nc(-c5ccc(NC(=O)c6ccc(C(C)(C)C)cc6)cc5)sc4c3)sc2c1S(=O)(=O)O', 'pIC50', 4.49),
  ('COc1ccc(S(=O)(=O)Nc2ccc(-c3nc4ccc(-c5nc6ccc(C)c(S(=O)(=O)O)c6s5)cc4s3)cc2)cc1', 'pIC50', 5.00),
  ('Cc1ccc2nc(-c3ccc(NC(=O)c4ccc(NC(=O)Nc5ccccc5)cc4)cc3)sc2c1S(=O)(=O)O.N', 'pIC50', 4.70),
  ('Cc1ccc2nc(-c3ccc(NC(=O)c4ccc(NC(=O)c5ccc(N)cc5)cc4)cc3)sc2c1S(=O)(=O)O.N', 'pIC50', 4.77),
  ('Cc1ccc2nc(-c3ccc(NC(=O)c4ccc(NC(=O)c5ccc(C(F)(F)F)cc5)cc4)cc3)sc2c1S(=O)(=O)O.N', 'pIC50', 4.64),
  ('Cc1ccc2nc(-c3ccc4nc(-c5ccc(NC(=O)c6cc(F)ccc6C(F)(F)F)cc5)sc4c3)sc2c1S(=O)(=O)O', 'pIC50', 4.85);
